- Test system: RSV A strain A2
- METHOD DESCRIPTION: RSV HAE EC50 (intracellular RSV RNA by real-time PCR in HAE cells)
- Format: cell-based
- ASSAY SETUP: HAE cells, RSV A2, 3 days; read-out: RSV HAE EC50
READOUT NAME: pEC50
Convention used: pEC50 is expressed as -log10 of the molar concentration.

The reported value for CC1CCC(OC(=O)C(C)NP(=O)(OCC2(C#N)OC(c3ccc4c(N)ncnn34)C(O)C2O)Oc2ccccc2)CC1 (stereo not shown) in terms of pEC50 is 6.80

---

Known pEC50 of a selection of compounds
- Tested on: RSV strain A2
- METHOD DESCRIPTION: RSV HEp-2 EC50 (infectious cytopathic cell protection assay)
- Format: cell-based
- ASSAY SETUP: human respiratory syncytial virus, HEp-2, 96 h, HEp-2 cells, RSV A2, 4 days; read-out: RSV HEp-2 EC50
Convention used: pEC50 is expressed as -log10 of the molar concentration.

Consider the reported pEC50 for these compounds:
COMPOUND: CCC(CC)COC(=O)[C@H](CC(C)C)NP(=O)(OC[C@@]1(C#N)O[C@@H](c2ccc3c(N)ncnn23)[C@H](O)[C@@H]1O)Oc1ccccc1 (mixture of isomers)
pEC50: 5.76
//
COMPOUND: C[C@H](NP(=O)(OC[C@@]1(C#N)O[C@@H](c2ccc3c(N)ncnn23)[C@H](O)[C@@H]1O)Oc1ccccc1)C(=O)OCCC(C)(C)C (stereo partly drawn) [Example 251]
pEC50: 8.10

The reported value for COC(=O)[C@H](C)NP(=O)(OC[C@@]1(C#N)O[C@@H](c2ccc3c(N)ncnn23)[C@H](O)[C@@H]1O)Oc1ccccc1 (stereo partly drawn) in terms of pEC50 is 6.78

The reported value for CCCCCCCCCCCC(=O)OCCNP(=O)(OC[C@@]1(C#N)O[C@@H](c2ccc3c(N)ncnn23)[C@H](O)[C@@H]1O)Oc1ccccc1 (mixture of isomers) in terms of pEC50 is 8.10

The reported value for CCCCCCCCCCCCCCCCOC(=O)[C@H](C)NP(=O)(OC[C@@]1(C#N)O[C@@H](c2ccc3c(N)ncnn23)[C@H](O)[C@@H]1O)Oc1ccccc1 (stereo partly drawn) in terms of pEC50 is 5.95

The reported value for C[C@H](NP(=O)(OC[C@@]1(C#N)O[C@@H](c2ccc3c(N)ncnn23)[C@H](O)[C@@H]1O)Oc1ccccc1)C(=O)O[C@@H]1CCN(C)C1 (mixture of isomers) in terms of pEC50 is 5.64
